Test system: KRAS patient-derived spheroids with HUVEC/MSC, viability;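 note: spheroids exposed to agents for 7 days; 100% = DMSO vehicle control viability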
PROTOCOL_SUMMARY: Anticancer human tumor 323965-272-R-J2-PDC patient-derived pancreatic carcinoma cell line growth inhibition [KRAS2]
RECORDED_CONDITIONS: second compound 1 µM; first compound 0.0316 µM; stronger effect = lower value
The entries below come with measured viability, T/C values attached.

MOLECULE | ASSAYED_SYSTEM | READOUT_UNITS | viability, T/C
Cn1ncnc1[C@H]1c2n[nH]c(=O)c3cc(F)cc(c23)N[C@@H]1c1ccc(F)cc1 + COc1cc2nc(C)nc(NC(C)c3cc(N)cc(C(F)(F)F)c3)c2cc1OC1CCOC1 | KRAS patient-derived spheroids with HUVEC/MSC, viability | % | 63.8
CCNC(=O)CC1N=C(c2ccc(Cl)cc2)c2cc(OC)ccc2-n2c(C)nnc21 (stereo not drawn) + COc1cc2nc(C)nc(NC(C)c3cc(N)cc(C(F)(F)F)c3)c2cc1OC1CCOC1 | KRAS patient-derived spheroids with HUVEC/MSC, viability | % | 76.3
COc1cc(Nc2ncc3c(n2)-c2ccc(Cl)cc2C(c2c(F)cccc2OC)=NC3)ccc1C(=O)O + CNCc1ccccc1-c1csc(C(C)Nc2nc(C)nc3cc(OC)c(OC)cc23)c1 | KRAS patient-derived spheroids with HUVEC/MSC, viability | % | 85.6
